- method-description: Human HepG2 cell viability assay in 384 well format
- Type: toxicity, cell-based
- Parameters: dose 125 nL, time 70.5 hour; concentration not given beside the values
- run-parameters: HepG2 cells, read-out: Inhibition
Below is a list of entries, each paired with its recorded cytotoxicity at 70.5 h value.

compound: COc1ccnc(N2CCCN(Cc3ncc(C(C)C)o3)CC2)n1
cytotoxicity at 70.5 h, %: -4.8
--
compound: O=c1cnc2ccccc2n1CCCn1cccn1
cytotoxicity at 70.5 h, %: 24.6
--
compound: COc1cccc(Cn2ncc(N(C)CCc3ccccc3)cc2=O)c1
cytotoxicity at 70.5 h, %: -6.35
--
compound: COCC1CN(C(=O)Cc2cccs2)Cc2nnn(CC3CC3)c21 (stereo not drawn)
cytotoxicity at 70.5 h, %: 2.3
--
compound: Cc1noc([C@]23COC[C@H]2CN(C(=O)N2CCCC2)C3)n1
cytotoxicity at 70.5 h, %: -6.89
--
compound: CC(=O)N1C[C@@H](c2ccsc2)[C@@H]2CN(Cc3cccc(Cl)c3)CC[C@@H]21
cytotoxicity at 70.5 h, %: 8.95
--
compound: Cc1cc(C(=O)NCc2ccc(N3CCCC(C(N)=O)C3)cc2)no1 (stereo not drawn)
cytotoxicity at 70.5 h, %: -12.6
--
compound: OCCNc1cc(-c2ccncc2)ncn1
cytotoxicity at 70.5 h, %: 0.654
--
compound: O=C1CC(NS(=O)(=O)N2CCOCC2)CN1Cc1ccccc1 (stereo not drawn)
cytotoxicity at 70.5 h, %: -5.68
--
compound: Cc1noc([C@H]2C[C@H]3OCC[C@H]3N(Cc3ccc4c(c3)OCO4)C2)n1
cytotoxicity at 70.5 h, %: -11.8
--
compound: CS(=O)(=O)N1CC[C@@H]2OC(COCC(=O)N3CCCC3)CC[C@@H]21 (stereo partly drawn)
cytotoxicity at 70.5 h, %: -6.9
--
compound: O=C([C@H]1C[C@@H]2CCN(C3CCOCC3)C[C@@H]2O1)N1CCOCC1
cytotoxicity at 70.5 h, %: -5.58
--
compound: COc1ccc(C(=O)N2CCN(C(=O)Cn3nccc3C)CC2)cc1
cytotoxicity at 70.5 h, %: 1.46
--
compound: CC(C)CNC(=O)N1C[C@H]2CCN[C@H]2C1
cytotoxicity at 70.5 h, %: -8.65
--
compound: O=C(O)c1c(NC2CCC2)ncc2c1CCN(C1CCOC1)C2 (stereo not drawn)
cytotoxicity at 70.5 h, %: -6.13
--
compound: Cc1noc(C)c1CN(C)Cn1c(=O)n(C)c2ccccc21
cytotoxicity at 70.5 h, %: -6.45
--
compound: Cc1cnn(CC2CCCCN2C(=O)c2ccccc2-n2cccn2)c1 (stereo not drawn)
cytotoxicity at 70.5 h, %: -17.3
--
compound: Cc1ccc(CN(C)C(=O)NCC(=O)NC(C)(C)C)s1
cytotoxicity at 70.5 h, %: -3.18
--
compound: CC(C)CNC(=O)CNC(=O)NC(C)COc1ccccc1F (stereo not drawn)
cytotoxicity at 70.5 h, %: -13.5
--
compound: c1cc(-c2c[nH]c([C@@H]3COCCN3C3CCOCC3)n2)ccn1
cytotoxicity at 70.5 h, %: -0.86
--
compound: CN(CCN1CCN(c2ccccc2)CC1)C(=O)Nc1ccncc1
cytotoxicity at 70.5 h, %: -3.63
--
compound: CC(C)Cc1nc(CCn2cncn2)n(-c2ccc3c(c2)OCCO3)n1
cytotoxicity at 70.5 h, %: -18
--
compound: CN(CCc1ccccn1)C(=O)Nc1cccnc1-n1cccn1
cytotoxicity at 70.5 h, %: -16.2
